The values you see were collected from the supplement of paper PMC8728848.

molecular target: Fuc(a1-2)[GalNAc(a1-4)]Gal(b1-4)GlcNAc; experiment: glycan array binding signal (z-score within array); higher = stronger binding; conditions: glycan notation: IUPAC condensed, linker removed
Shown is part of a subset that was picked to be rich in the strongest signals.
// reported glycan array binding signal (z-score) per item

Epa13 (Candida glabrata) (protein) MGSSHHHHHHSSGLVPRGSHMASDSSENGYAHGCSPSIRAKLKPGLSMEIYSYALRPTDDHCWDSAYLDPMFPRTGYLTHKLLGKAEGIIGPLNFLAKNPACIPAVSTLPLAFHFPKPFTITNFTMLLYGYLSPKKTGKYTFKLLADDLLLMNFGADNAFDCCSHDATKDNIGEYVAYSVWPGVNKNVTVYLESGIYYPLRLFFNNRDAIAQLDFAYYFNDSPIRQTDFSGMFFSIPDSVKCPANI = -0.453

Please examine the following record next.
Input line: Requested read-out: glycan array binding signal (z-score). Entry: CV-IIL (Chromobacterium violaceum) (protein) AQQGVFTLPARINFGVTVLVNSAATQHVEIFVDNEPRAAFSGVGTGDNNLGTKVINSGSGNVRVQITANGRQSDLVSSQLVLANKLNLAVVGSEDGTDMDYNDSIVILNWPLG
Output line: 1.2
